The compounds listed here are annotated with their Long-term Stability RE.
# assay procedure: Stability of the analytes in rat plasma (QC samples)
# Type: in vitro ADME
# test conditions: -20 °C for one month, low QC concentration (3.88 / 2.946 / 2.47 / 0.836 / 0.4224 ng/mL), n = 6
Your answer is read as %, so omit the unit and give the number.

Solved cases (4 shown):
# compound, observed property, output unit, numeric readout
rows = [
    ("O=C1C[C@@H](c2ccc(O)cc2)Oc2cc(O)cc(O)c21", "Long-term Stability RE", "%", -0.84),
    ("COc1ccc(-c2cc(=O)c3c(OC)c(OC)c(OC)c(OC)c3o2)cc1OC", "Long-term Stability RE", "%", 5.83),
    ("COc1ccc2ccc(=O)oc2c1CC(O)C(C)(C)O (centres unmarked) [Meranzin hydrate, meranzin hydrate]", "Long-term Stability RE", "%", 7.62),
    ("COc1ccc([C@@H]2CC(=O)c3c(O)cc(O)cc3O2)cc1O", "Long-term Stability RE", "%", 5.03),
]

Turning now to a further compound:
# get_value(readout='Long-term Stability RE', item= COc1ccc2ccc(=O)oc2c1CC1OC1(C)C (centres unmarked) )
-10.98

====

# assay procedure: Stability of the analytes in rat plasma (QC samples)
# Type: in vitro ADME
# test conditions: room temperature 24 h, middle QC concentration (77.6 / 58.92 / 49.4 / 16.72 / 8.44 ng/mL), n = 6
The compounds listed here are annotated with their Short-term Stability RE.

# compound, Short-term Stability RE
measured = [
    ("COc1ccc(-c2cc(=O)c3c(OC)c(OC)c(OC)c(OC)c3o2)cc1OC [Nobiletin, nobiletin]", "7.89%"),
    ("COc1ccc2ccc(=O)oc2c1CC1OC1(C)C (centres unmarked) [Meranzin, meranzin]", "-8.40%"),
    ("COc1ccc([C@@H]2CC(=O)c3c(O)cc(O)cc3O2)cc1O [Hesperetin, hesperetin]", "-9.20%"),
]

# get_value(readout='Short-term Stability RE', item= O=C1C[C@@H](c2ccc(O)cc2)Oc2cc(O)cc(O)c21 [Naringenin, naringenin] )
14.81%

Try the compound COc1ccc2ccc(=O)oc2c1CC(O)C(C)(C)O (centres unmarked) [Meranzin hydrate, meranzin hydrate]
1.55%

====

# assay procedure: Stability of the analytes in rat plasma (QC samples)
# Format: in vitro ADME
# test conditions: three cycles -20 °C/room temperature, high QC concentration (3880 / 2946 / 2470 / 836 / 422.4 ng/mL), n = 6
The compounds listed here are annotated with their Free–thaw Stability RE.
Your answer is read as %, so omit the unit and give the number.

# compound, Free–thaw Stability RE, %
rows = [
    ("COc1ccc([C@@H]2CC(=O)c3c(O)cc(O)cc3O2)cc1O [Hesperetin, hesperetin]", -12.68),
]

# get_value(readout='Free–thaw Stability RE', item= COc1ccc2ccc(=O)oc2c1CC1OC1(C)C (centres unmarked) [Meranzin, meranzin] )
-6.01

Try the compound COc1ccc2ccc(=O)oc2c1CC(O)C(C)(C)O (centres unmarked) [Meranzin hydrate, meranzin hydrate]
7.63

Try the compound COc1ccc(-c2cc(=O)c3c(OC)c(OC)c(OC)c(OC)c3o2)cc1OC [Nobiletin, nobiletin]
-1.72

Try the compound O=C1C[C@@H](c2ccc(O)cc2)Oc2cc(O)cc(O)c21 [Naringenin, naringenin]
-10.94
